System: Brassica rapa subsp. oleifera
Test: Herbicidal activity against Brassica rapa subsp. oleifera assessed as inhibition of fresh weed plant weight at 1500 g/ha using pre-emergence treatment protocol
Type: functional
Tick TRUE if inhibition at 1500 g/ha is 30% or greater. Tick FALSE if inhibition at 1500 g/ha is less than 30%.

Worked cases, answers included:
[[record]]
smilesentry = "C#CCOc1cc(-n2nnc3c(cnn3C)c2=O)c(F)cc1Cl"
label = "FALSE"

[[record]]
smilesentry = "C=CCN1C(=O)COc2cc(F)c(-n3nnc4nn(CCC)cc4c3=O)cc21"
label = "TRUE"

[[record]]
smilesentry = "C#CCN1C(=O)COc2cc(F)c(-n3nnc4nn(CC=C)cc4c3=O)cc21"
label = "TRUE"


Does the reported inhibition at 1500 g/ha for `C=CCN1C(=O)COc2cc(F)c(-n3nnc4c(cnn4CCC)c3=O)cc21` fall at or above the 30% mark? TRUE

Does the reported inhibition at 1500 g/ha for `C#CCN1C(=O)COc2cc(F)c(-n3nnc4c(c(C(F)(F)F)nn4C)c3=O)cc21` fall at or above the 30% mark? FALSE
